These records show IC50 for Human cGAS (Homo sapiens (Human)).
API: value field is a number in nM; no unit string.

{"compound": "Cn1ccc(-c2ncc(Cl)c3c2c2c(n3C)CCN(C(=O)CO)C2)n1 [Example 74]", "recorded.measurement": 290}
{"compound": "Cn1ccc(-c2ncc(Cl)c3[nH]c4c(c23)CN(C(=O)CO)CC4)n1 [Example 72]", "recorded.measurement": 250}
{"compound": "CCOc1nc2c3c([nH]c2c(F)c1Cl)CCN(C(=O)CO)C3 [Example 78]", "recorded.measurement": 3700}

### Prompt I'm curious: which IC50 was measured for Cn1ccc(-c2ccc(Cl)c3nn4c(c23)CN(C(=O)CO)CC4)n1 [Example 69] tested on Human cGAS (Homo sapiens (Human))?
### Response 280

### Prompt What value of IC50 on Human cGAS (Homo sapiens (Human)) does Cn1ccc(-c2nc(Cl)c(Cl)c3c2c2c(n3C)CCN(C(=O)CO)C2)n1 [Example 34] have?
### Response 150

---

List of IC50 tested on Human cGAS (Homo sapiens (Human)).
Sequence (Q8N884 whole entry): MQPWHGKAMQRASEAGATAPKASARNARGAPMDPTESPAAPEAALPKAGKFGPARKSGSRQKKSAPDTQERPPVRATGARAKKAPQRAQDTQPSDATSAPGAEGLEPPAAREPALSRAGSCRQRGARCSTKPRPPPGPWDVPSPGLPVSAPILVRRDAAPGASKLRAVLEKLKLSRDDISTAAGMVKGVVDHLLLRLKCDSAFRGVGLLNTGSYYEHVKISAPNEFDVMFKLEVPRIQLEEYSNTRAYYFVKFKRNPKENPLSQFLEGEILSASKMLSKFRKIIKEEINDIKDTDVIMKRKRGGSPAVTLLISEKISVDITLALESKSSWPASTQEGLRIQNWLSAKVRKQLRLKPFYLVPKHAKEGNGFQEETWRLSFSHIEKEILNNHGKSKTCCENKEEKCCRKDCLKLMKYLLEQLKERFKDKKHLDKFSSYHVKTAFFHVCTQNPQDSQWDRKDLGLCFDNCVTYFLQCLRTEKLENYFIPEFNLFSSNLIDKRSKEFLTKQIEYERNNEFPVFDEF
Express your answer in nM, writing the number without its unit.

Reference set (2 entries):
{"compound": "COc1nc2c3c([nH]c2c(Cl)c1Cl)C(C)(C)CN(C(=O)CO)C3 [Example 76]", "recorded.measurement": 850}
{"compound": "COCC(=O)N1CCc2[nH]c3c(Cl)cnc(-c4ccn(C)n4)c3c2C1 [Example 73]", "recorded.measurement": 870}

// switching to the query compound
### Prompt Return IC50 measured with Human cGAS (Homo sapiens (Human)) given this compound: Cc1noc(-c2cc(Cl)c(F)c3nn4c(c23)CN(C(=O)CO)CC4)n1 [Example 71]
### Response 1400
